- tested system: serotonin 5-HT2C receptor (Homo sapiens, UniProt P28335, I156V/I160V/N158S)
- Sequence (P28335 33-458 I156V/N158S/I160V limits assumed): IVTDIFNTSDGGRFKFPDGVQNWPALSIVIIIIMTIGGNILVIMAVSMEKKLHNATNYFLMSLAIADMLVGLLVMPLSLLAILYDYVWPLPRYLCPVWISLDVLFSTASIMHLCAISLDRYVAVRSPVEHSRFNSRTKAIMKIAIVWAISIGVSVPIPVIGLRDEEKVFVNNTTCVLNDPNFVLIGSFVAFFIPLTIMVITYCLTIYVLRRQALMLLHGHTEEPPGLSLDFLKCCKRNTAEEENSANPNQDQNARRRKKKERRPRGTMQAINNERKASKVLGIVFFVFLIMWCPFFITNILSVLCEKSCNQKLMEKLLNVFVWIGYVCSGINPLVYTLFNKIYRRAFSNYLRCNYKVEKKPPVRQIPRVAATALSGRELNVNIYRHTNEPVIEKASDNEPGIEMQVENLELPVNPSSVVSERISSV
- Format: cell-based
Parameter: ratio (%) relative to maximum response by 5-HT (1 μM). Scope: all listed entries.
measured metric: ratio (%) relative to maximum response by 5-HT (1 μM)

{"columns": ["structure", "meas value"],
 "data": [
  ["C[C@H]1CNCc2ncc(N3CCOCC3)nc2O1", 102],
  ["C[C@@H]1COCCN1c1cnc2c(n1)OCCNC2.Cl", 95],
  ["CC[C@@H]1COCCN1c1cnc2c(n1)OCCNC2.Cl", 103],
  ["CC(C)N(C)c1cnc2c(n1)OCCNC2.Cl", 95],
  ["C[C@@H]1COCCN1c1cnc2c(n1)O[C@@H](C)CNC2.Cl", 108],
  ["CC(C)Oc1cnc2c(n1)OCCNC2.Cl", 93],
  ["Cl.c1nc2c(nc1C1CC1)OCCNC2", 89]
]}
